- system.tested: Parkinson's disease protein 7 (PARK7/DJ1) (human)
- protocol.description: primary screen, percent inhibition; higher = more effect of the substance
- test.parameters: 100 µM
Among all 7,900 compounds or so, about 400 (5.1%) showed an effect of 50% or more. The full list was thinned out, with strong results kept by preference.
property: Inhibition % (%)
Please state the figure in %; there is no need to write the unit.

Some entries whose results are on file:
O=C(Cc1ccccc1Cl)N1CCCCC1C1OCCO1 (stereo not shown) :: 14.3
O=S(=O)(F)c1ccc(Cl)c(S(=O)(=O)F)c1 :: -3.28
O=Cc1cccc(C(=O)O)c1O :: 24.2
C=CC(=O)N1CCCC(n2ccc(C(=O)NC)n2)C1 (stereo not shown) :: 8.31
C=CC(=O)NC(C)c1csnn1 (stereo not shown) :: 10

Measured Inhibition % of C=CC(=O)NC1CC(=O)N(CC)C1 (stereo not shown) : 8.72

Measured Inhibition % of Fc1ccc(C2CO2)nc1 (stereo not shown) : 4.53

* * *

- system.tested: Parkinson's disease protein 7 (PARK7/DJ1) (human)
- protocol.description: primary screen, percent inhibition; higher = more effect of the substance
- test.parameters: 100 µM
Out of some 7,900 compounds screened, about 400 (5.1%) showed an effect of 50% or more. The sample as a whole holds a higher share of strong results than the screen did.
Entries and their measured Inhibition % follow.
Please state the figure in %; there is no need to write the unit.

Some entries whose results are on file:
CC1(C)C2CC=C(COCC3CO3)C1C2 (stereo not shown) :: 3.87
C=CC(=O)N1CCCN(Cc2nccn2C)CC1 :: 10.6
CCOc1cc(C)ccc1S(=O)(=O)n1cccn1 :: 0.108
CN(C(=O)C(C#N)=Cc1ccco1)c1ccc(F)cc1 :: 8.11
Cc1cc(C)n(S(=O)(=O)c2ccc(C)c(C)c2)n1 :: 3.92
NC(=O)c1coc(C(=O)CCl)c1 :: 96.3

Next molecule, please.
Measured Inhibition % of `CNC(=O)c1cc(C(=O)CCl)cn1C` : 5.61

* * *

Entries and their measured Inhibition % follow.
- system.tested: Parkinson's disease protein 7 (PARK7/DJ1) (human, UniProt Q99497)
- Sequence (Q99497 whole entry, looked up): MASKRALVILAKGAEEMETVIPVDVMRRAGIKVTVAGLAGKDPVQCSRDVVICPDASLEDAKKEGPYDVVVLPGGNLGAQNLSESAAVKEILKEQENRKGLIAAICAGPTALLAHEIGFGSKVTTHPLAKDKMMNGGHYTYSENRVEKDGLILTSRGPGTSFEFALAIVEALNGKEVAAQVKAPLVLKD
- protocol.description: primary screen, percent inhibition; higher = more effect of the substance
- test.parameters: 100 µM
In all, about 7,900 compounds went through this assay and about 400 (5.1%) showed an effect of 50% or more. The sample as a whole holds a higher share of strong results than the screen did.
Please state the figure in %; there is no need to write the unit.

Some entries whose results are on file:
Cc1ccc(Sc2ccc(NC(=O)CCl)cc2)c(C)c1 :: 25.5
O=C(CCl)Nc1cc(C(F)(F)F)ccc1Cl :: 4.72
O=C(CCl)Nc1cc2ccccc2cc1C(=O)O :: 66.3
CCCn1c(C)nnc1CN(C#N)c1cc(C)ccc1F :: 20.1
O=C(CCCl)N1CCN(c2ncccn2)CC1 :: 3.8

Measured Inhibition % of `C=CC(=O)N(C)Cc1cc2ccccc2o1` : 5.57

Measured Inhibition % of CCN(C(=O)CCl)C(C)c1ccc(F)cc1 (stereo not drawn) : 9.9

Measured Inhibition % of `Cc1ccc(NC(=O)CN2CCSC2=O)cc1F` : 3.32

Measured Inhibition % of `CC1(c2ccc(S(=O)(=O)F)cc2)OCCO1` : 6.74

Measured Inhibition % of `O=C(CCl)Nc1cccc2cccc(C(=O)O)c12` : 11.2

* * *

- system.tested: Parkinson's disease protein 7 (PARK7/DJ1) (human, UniProt Q99497)
- protocol.description: primary screen, percent inhibition; higher = more effect of the substance
- test.parameters: 100 µM
Among all 7,900 compounds or so, about 400 (5.1%) showed an effect of 50% or more. Many of the other results were omitted from the sample, so strong results are more common in it than they were.
property: Inhibition % (%)
Please state the figure in %; there is no need to write the unit.

Some entries whose results are on file:
Cc1nn(-c2ccccc2)c(C)c1NC(=O)CCl :: 6.29
O=C(CCl)c1ccoc1 :: 76.6
C=CC(=O)N1CCCC1C (stereo not shown) :: 7.71

Measured Inhibition % of `O=c1onc(-c2cnccn2)n1Cc1cccc(F)c1` : -2.87

Measured Inhibition % of `CC1(C)OB(c2cc(-c3ccccc3)co2)OC1(C)C` : 85.9

Measured Inhibition % of CC1CCN(C(=O)CCl)c2ccccc2S1 (stereo not shown) : 6.09

Measured Inhibition % of Cc1ccc(-c2nnc(SC3CC(C)OC3=O)o2)cc1 (stereo not shown) : 7.51

Measured Inhibition % of `NC(=O)CN(C1CCCC1)S(=O)(=O)C=Cc1ccccc1` : 7.09

* * *

- system.tested: Parkinson's disease protein 7 (PARK7/DJ1) (human, UniProt Q99497)
- protocol.description: primary screen, percent inhibition; higher = more effect of the substance
- test.parameters: 100 µM
The campaign covered roughly 7,900 compounds. About 400 (5.1%) showed an effect of 50% or more. Only a selection was taken, and strong results are over-represented in it overall.
Classify as follows. Reported Inhibition % greater than or equal to 10%: criterion met. Reported Inhibition % below: criterion not met.

Cl.O=S(=O)(F)CCNc1ccc(Cl)cc1 :: criterion met

Is reported Inhibition % greater than or equal to 10% here: `CC1(C)OB(c2ccc(F)cc2[N+](=O)[O-])OC1(C)C`
criterion not met

Is reported Inhibition % greater than or equal to 10% here: `COc1cccc(CN(C)C(=O)CCl)c1`
criterion met

Is reported Inhibition % greater than or equal to 10% here: `CCn1ncc(C(=O)CCl)n1`
criterion met

Is reported Inhibition % greater than or equal to 10% here: `NC(=O)c1ccc(OCCCl)cc1`
criterion not met

* * *

- system.tested: Parkinson's disease protein 7 (PARK7/DJ1) (human)
- protocol.description: primary screen, percent inhibition; higher = more effect of the substance
- test.parameters: 100 µM
Out of some 7,900 compounds screened, about 400 (5.1%) showed an effect of 50% or more. This excerpt belongs to a sample that is enriched for strong results.
Classify as follows. Reported Inhibition % greater than or equal to 10%: t. Reported Inhibition % below: f.

Cc1n[nH]c(C)c1CNc1ccc(Cl)c(C#N)n1 :: f
C=CC(=O)Nc1ccc(=O)n(C)c1 :: t
C=CC(=O)Nc1ccc2c(c1)OCCCO2 :: f

Is reported Inhibition % greater than or equal to 10% here: `CC1(C)OB(c2cccc(N)c2)OC1(C)C`
t

Is reported Inhibition % greater than or equal to 10% here: `O=S(=O)(F)Cc1ccccc1`
f

Is reported Inhibition % greater than or equal to 10% here: `CC1(C)OB(c2ccc(N)c(O)c2)OC1(C)C`
t

Is reported Inhibition % greater than or equal to 10% here: `CC1(C)OB(c2ccc3cc(N)ccc3c2)OC1(C)C`
t

Is reported Inhibition % greater than or equal to 10% here: `C=CC(=O)Nc1ccc(Br)cc1`
f

Is reported Inhibition % greater than or equal to 10% here: `C#CC(=O)Cc1ccccc1`
f

Is reported Inhibition % greater than or equal to 10% here: `CC1(C)OB(c2ccc(N)c(F)c2)OC1(C)C`
f

Is reported Inhibition % greater than or equal to 10% here: C=CC(=O)NCC1CCCc2ccccc21 (stereo not shown)
f

Is reported Inhibition % greater than or equal to 10% here: `CC1(C)OB(c2ccc3ccc(N)cc3c2)OC1(C)C`
t

* * *

Entries and their measured Inhibition % follow.
- system.tested: Parkinson's disease protein 7 (PARK7/DJ1) (human, UniProt Q99497)
- protocol.description: primary screen, percent inhibition; higher = more effect of the substance
- test.parameters: 100 µM
Among all 7,900 compounds or so, about 400 (5.1%) showed an effect of 50% or more. The entries come from a sample that favours strong results as a whole.
Please state the figure in %; there is no need to write the unit.

CC(C)NC(=O)C(C#N)=Cc1cc(F)ccc1F :: 1.67

Next molecule, please.
Measured Inhibition % of `O=C(CCl)c1ccccn1` : 102

* * *

- system.tested: Parkinson's disease protein 7 (PARK7/DJ1) (human, UniProt Q99497)
- protocol.description: primary screen, percent inhibition; read as competition with a fluorescent probe by fluorescence polarization; higher = more effect of the substance
- test.parameters: 100 µM
About 400 (5.1%) of roughly 7,900 compounds showed an effect of 50% or more. Shown is part of a subset that was picked to be rich in strong results.
property: Inhibition % (%)
Please state the figure in %; there is no need to write the unit.

CC1(C)OB(c2cccc3c2CCO3)OC1(C)C :: 9.99
N#Cc1ccc(N2CCCC(N3CCCCCC3)C2)cn1 (stereo not shown) :: 5.26
O=C1OCCC1Sc1nnc(-c2cccs2)o1 (stereo not shown) :: 21.8

Measured Inhibition % of `CC1(C)OB(c2cccc(OCCN3CCCCC3)c2)OC1(C)C` : -0.0143

Measured Inhibition % of `C=CC(=O)N1CCCc2c1nc[nH]c2=O` : 20.2

Measured Inhibition % of `Cc1ccc(S)nc1` : 7.53

Measured Inhibition % of O=C1OCCC1Sc1nnc(-c2ccncc2)o1 (stereo not shown) : 6.02
